system: leukotriene pathway in human whole blood (LTB4 levels); test: Human whole blood assay (LTB4); assay type: cell-based; conditions: human whole blood diluted 1:1 in RPMI, stimulated with calcium ionophore A23187; single replicate
// reported IC50 per item
Observation Type: IC50 (nM)

• Nc1cnc(-c2ccc(C3CCC3)c(OCC(O)CNc3ccn[nH]3)c2F)cn1 (racemic) [Example 67] = 727
• Nc1cnc(-c2ccc(C3CCC3)c(OCCNc3ccnc(N)n3)c2F)cn1 [Example 332] = 450
• Cc1nc(Oc2c(C3CCC3)ccc(-c3cnc(N)cn3)c2F)cc(N(C)C)n1 [Example 235] = 113
• COC(=O)c1ccc(O)c(NC(=O)COc2c(C3CCC3)ccc(-c3cnc(N)cn3)c2F)c1 [Example 263] = 1960

Values compiled from patent US9073876B2.
